Cited source: PubChem BioAssay (NCATS)

# Experimental Protocol: Primary qHTS for inhibitors of nuclear receptor binding SET domain protein 2 (NSD2) in an RCH-ACV wild type WT cells (2C) (AID 1645877); also: nearly all actives have a fitted effect of over 70% in size
# Study Conditions: RCH-ACV (leukaemia line) NSD2 WT (2C) viability, CellTiter-Glo, 72 h; series mostly up to 44.9 µM
Inconclusive results are not listed. Activity calls are given as the source filed them. Calls follow the shape of the dose curve; as a rule, active = well fitted inhibition curve with a large enough effect; inconclusive = small, poorly fitted or top-dose-only effect; inactive = no such curve, though single readings can be large or run the other way.
Outcome codes: class 1 (active), class 0 (inactive)

>  <Compound>
COc1c2ccoc2cc2oc(CO[C@@H]3O[C@H](CO)[C@@H](O)[C@H](O)[C@H]3O)cc(=O)c12

>  <Discrete Label>
class 0

$$$$
>  <Compound>
CC(C)C(CO)Nc1nc(Nc2ccc(C(=O)O)c(Cl)c2)c2ncn(C(C)C)c2n1 (centres undefined)

>  <Discrete Label>
class 0

$$$$
>  <Compound>
COc1ccc(CCO[C@@H]2CCCC[C@H]2N2CC[C@@H](O)C2)cc1OC

>  <Discrete Label>
class 0

$$$$
>  <Compound>
C=C[C@H]1C(O[C@@H]2O[C@H](CO)[C@@H](O)[C@H](O)[C@H]2O)OC=C2C(=O)N3CCc4c([nH]c5ccccc45)C3CC21 (some centres undefined)

>  <Discrete Label>
class 0

$$$$
>  <Compound>
COc1cc2c(cc1O)[C@H](c1ccc(O[C@@H]3O[C@H](CO)[C@@H](O)[C@H](O)[C@H]3O)c(OC)c1)[C@@H](CO)[C@](O)(CO)C2

>  <Discrete Label>
class 0

$$$$
>  <Compound>
O=C(CCCCN1CCOCC1)Nc1ccc(-c2cccnc2)cc1

>  <Discrete Label>
class 0

$$$$
>  <Compound>
C=CC(C)(C)C12C=C(OC)C(=O)N3C(C(C)C)C(=O)NC31N(OC)c1ccccc12 (centres undefined)

>  <Discrete Label>
class 0

$$$$
>  <Compound>
C[C@@H]1O[C@@H](O[C@H]2[C@H](O)[C@@H](O)[C@H](OC3CCC4(C)C5CCC(C)(C(CO)OC6OC(CO)C(O)C(O)C6O)CC5=CCC4C3(C)C)O[C@@H]2CO)[C@H](O)[C@H](O)[C@H]1O (some centres undefined)

>  <Discrete Label>
class 0

$$$$
>  <Compound>
O=C(CCc1nnc2n(Cc3ccc(Cl)cc3)c(=O)c3ccccc3n12)NCCC1=CCCCC1

>  <Discrete Label>
class 0

$$$$
>  <Compound>
Cc1ccc(-c2ccc3c(ccc4sc5c(c43)NC[C@@H](C)NC5=O)n2)cn1

>  <Discrete Label>
class 1

$$$$
>  <Compound>
N[C@H]1Cc2ccccc2N(O)C1=O

>  <Discrete Label>
class 1

$$$$
>  <Compound>
CC(C)NCC(C(=O)N1CCN(c2ncnc3c2C(C)CC3O)CC1)c1ccc(Cl)cc1 (centres undefined)

>  <Discrete Label>
class 1

$$$$
>  <Compound>
C[C@@H]([C@@H](O)c1ccc(O)cc1)N1CCC(O)(c2ccccc2)CC1

>  <Discrete Label>
class 0

$$$$
>  <Compound>
O=C(CC1C(=O)Nc2ccccc21)OC[C@H]1O[C@@H](OCCc2ccc(O)cc2)[C@H](O)[C@@H](O)[C@@H]1O (some centres undefined)

>  <Discrete Label>
class 0

$$$$
>  <Compound>
O=C1NC(Cc2ccccc2)C(=O)N2CCCC12 (centres undefined)

>  <Discrete Label>
class 0

$$$$
>  <Compound>
O=C1NC(=O)C(c2cn3c4c(cccc24)CCC3)C1c1c[nH]c2ccccc12 (centres undefined)

>  <Discrete Label>
class 1

$$$$
>  <Compound>
NC(=O)c1cnc(NCCc2ccc(O)c(Cl)c2)nc1NCc1ccccc1

>  <Discrete Label>
class 1

$$$$
>  <Compound>
COC(=O)/C=C/C12COC(C)(C)C1C(O)C(OC(C)=O)C1(C)C2CCC2(C)C(c3ccoc3)OC(=O)C3OC321 (centres undefined)

>  <Discrete Label>
class 0

$$$$
>  <Compound>
C=C[C@]1(C)C=C2CCC3C(C)(CCC[C@@]3(C)C(=O)O)C2CC1 (some centres undefined)

>  <Discrete Label>
class 0

$$$$
>  <Compound>
Cc1ccccc1CN1C2=NCCN2C(=O)C2=C1CCN(Cc1ccccc1)C2

>  <Discrete Label>
class 0

$$$$
>  <Compound>
CC1(C)CC2C(C1)C(C)(O)C13CC1(COC3=O)C2O (centres undefined)

>  <Discrete Label>
class 0

$$$$
>  <Compound>
COC(=O)C(C)C1CCC2(C)C(=O)C=CC(C)(O)C2C1O (centres undefined)

>  <Discrete Label>
class 0

$$$$
>  <Compound>
CCCC(=O)C1CCN(c2ncnc3c2CN(C(=O)c2ccc(-c4ccccc4)cc2)CC3)CC1

>  <Discrete Label>
class 1

$$$$
>  <Compound>
C[C@@H]1O[C@@H](O[C@H]2[C@H](O)[C@@H](O)[C@H](O[C@H]3[C@H](O[C@H]4CC[C@@]5(C)C(=CC[C@@H]6C5CC[C@]5(C)[C@@H]7[C@H](C[C@@H]65)O[C@]5(CC[C@@](C)(CO[C@@H]6O[C@H](CO)[C@@H](O)[C@H](O)[C@H]6O)O5)[C@H]7C)C4)O[C@H](CO)[C@@H](O)[C@@H]3O)O[C@@H]2CO)[C@H](O)[C@H](O)[C@H]1O (some centres undefined)

>  <Discrete Label>
class 1

$$$$
>  <Compound>
Cc1oc2ccccc2c1CNC(=O)NCc1cccs1

>  <Discrete Label>
class 0

$$$$
>  <Compound>
C=C(CO)C12OC1C1(C)C(=CC2=O)C(O)C(O)CC1C (centres undefined)

>  <Discrete Label>
class 0

$$$$
>  <Compound>
C[C@@H]1CC[C@@]2(OC1)O[C@H]1C[C@H]3[C@@H]4CC=C5C[C@@H](O)CC[C@]5(C)[C@H]4CC[C@]3(C)[C@H]1[C@@H]2C

>  <Discrete Label>
class 0

$$$$
>  <Compound>
C/C(=C\CCC(C)CCO)C(=O)OC1(C)CCC2C(C(=O)O)=COC(OC3OC(CO)C(O)C(O)C3O)C21 (centres undefined)

>  <Discrete Label>
class 0

$$$$
>  <Compound>
COc1cc(O)cc(C)c1C(=O)O[C@@H]1[C@H](O)[C@@H](CO)O[C@H]1n1ccc(=O)[nH]c1=O

>  <Discrete Label>
class 0

$$$$
>  <Compound>
O=C1OCC(c2ccccc2)=C1Cc1ccccc1

>  <Discrete Label>
class 0

$$$$
>  <Compound>
CN1CCc2nc(C(=O)N[C@@H]3C[C@@H](C(=O)N(C)C)CC[C@@H]3NC(=O)C(=O)Nc3ccc(Cl)cn3)sc2C1

>  <Discrete Label>
class 0

$$$$
>  <Compound>
C[C@@]1(O)[C@H](O)[C@@H](CO)O[C@H]1n1ccc(N)nc1=O

>  <Discrete Label>
class 1

$$$$
>  <Compound>
O=C(c1ccc2nccnc2c1)N1CCCCC1

>  <Discrete Label>
class 0

$$$$
>  <Compound>
CC(C)(O)/C=C/CC(C)(O)C1C(O)CC2(C)C3CCC4C(C)(C)C(=O)CCC4(C)C3CCC12C (centres undefined)

>  <Discrete Label>
class 0

$$$$
